Where do the numbers come from? From patent US6936636B2.

Molecular target: RXRγ (Homo sapiens, UniProt P48443)
Construct: expressed in transfected cells
Sequence (P48443 whole entry): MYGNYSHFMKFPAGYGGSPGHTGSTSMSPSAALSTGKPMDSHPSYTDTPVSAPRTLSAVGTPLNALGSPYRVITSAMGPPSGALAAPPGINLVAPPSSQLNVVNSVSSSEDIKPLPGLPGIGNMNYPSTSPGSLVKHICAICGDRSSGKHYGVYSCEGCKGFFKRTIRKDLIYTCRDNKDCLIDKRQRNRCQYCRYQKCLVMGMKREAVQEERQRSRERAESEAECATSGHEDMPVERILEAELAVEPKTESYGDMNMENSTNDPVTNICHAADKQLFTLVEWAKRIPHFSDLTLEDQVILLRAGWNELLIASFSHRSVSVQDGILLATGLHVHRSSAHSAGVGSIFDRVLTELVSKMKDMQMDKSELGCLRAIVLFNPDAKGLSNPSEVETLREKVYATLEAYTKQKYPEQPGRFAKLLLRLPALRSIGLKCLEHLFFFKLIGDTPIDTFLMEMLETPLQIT
Assay: holoreceptor transactivation assay
Assay type: cell-based
Conditions: efficacy as percentage compared to the standard compound
Measured Property: Transactivation % Efficiency RXRγ (%)

Compound	Recorded Measurement
COC[C@@H]1[C@@H](/C=C/C(C)=C/C(=O)O)C1(C)c1ccc2c(c1)C(C)(C)CCC2(C)C (stereo in doubt) [Compound 23a]	9
COCC1[C@@H](/C=C/C(C)=C/C(=O)O)C1(C)c1cc(C(C)C)cc(C(C)C)c1 (stereo in doubt) [Compound 29]	35
COC[C@H]1[C@@H](/C=C/C(C)=C/C(=O)O)[C@@]1(C)c1ccc2c(c1)C(C)(C)CCC2(C)C (stereo in doubt) [Compound 21a]	41

(1) CCOC[C@H]1[C@@H](/C=C/C(C)=C/C(=O)O)C1(C)c1ccc2c(c1)C(C)(C)CCC2(C)C (stereo in doubt) [Compound 21b]
(2) COCC1[C@@H](/C=C/C(C)=C/C(=O)O)C1(C)c1cc(C(C)C)cc(C(C)C)c1 (stereo in doubt) [Compound 31a]
[ask] Of 1 and 2 , which carries the smaller reported Transactivation % Efficiency RXRγ figure? State the label of the item chosen.
[reply] 1
(1: 34%, 2: 101%)
